Exercise: for every item that follows, state its recorded mass density.
- condition-notes: 333.15 K; 81.5 kPa; Liquid
One number for each entry, in kg/m3.

# count of solved cases: 3
[
  {
    "compound": "CCCO",
    "mass density, kg/m3": 770.42
  },
  {
    "compound": "CC(O)CO (centres undefined)",
    "mass density, kg/m3": 1005.86
  },
  {
    "compound": "COCCO",
    "mass density, kg/m3": 927.38
  }
]

Given the entry CC(C)O , report its measured mass density.
749.06

---

- condition-notes: 313.15 K; 81.5 kPa; Liquid
Exercise: for every item that follows, state its recorded mass density.
Give bare numbers, in kg/m3.

# count of solved cases: 3
[
  {
    "compound": "CC(C)O [propan-2-ol]",
    "mass density (kg/m3)": 767.85
  },
  {
    "compound": "CC(O)CO (centres undefined) [1,2-propanediol]",
    "mass density (kg/m3)": 1021.35
  },
  {
    "compound": "COCCO [2-methoxyethan-1-ol]",
    "mass density (kg/m3)": 946.38
  }
]

Now look at this one.
Given the entry CCCO [propan-1-ol] , report its measured mass density.
787.39
